The measurements presented in this section are drawn from PubChem BioAssay (EPA / NIEHS).

Experiment: CEETOX_H295R_ANDR: CeeTox H295R High-throughput Steroidogenesis Assay for Androstenedione (ANDR) (AID 2283436);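 also: human H295R adrenal cells exposed for 48 h with androstenedione measured in medium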
Conditions: actives raise or lower the signal
The source made the active and inactive calls. The calls were made as follows: active = hit-call score of the fitted dose curve at least 0.9, where 1 is the maximum; inactive = score below 0.9.
Response enum: class 1 for active, class 0 for inactive

Field: example entries. Status: answers known.
compound	assigned.label
CCN(CC)CCOc1ccc(C(=C(Cl)c2ccccc2)c2ccccc2)cc1	class 1
CC1=C(C)S(=O)(=O)CCS1(=O)=O	class 0
CCCCCCCCCC[N+](C)(C)[O-]	class 1
O=C1OC(c2ccc(O)cc2)(c2ccc(O)cc2)c2ccccc21	class 0

What call does the record list for CCC(C)N(C)C(=O)c1cc2ccccc2c(-c2ccccc2Cl)n1 (stereo not given) ?
class 0
